target: Epidermal growth factor receptor [DEL746-750] (Homo sapiens, UniProt P00533); construct: gene EGFR; assay: Inhibitory Activity of Compounds Against EGFR Mutant Enzyme
Sequence (P00533 with tags, fused parts or gaps DEL746-750 limits assumed, stated change not applied): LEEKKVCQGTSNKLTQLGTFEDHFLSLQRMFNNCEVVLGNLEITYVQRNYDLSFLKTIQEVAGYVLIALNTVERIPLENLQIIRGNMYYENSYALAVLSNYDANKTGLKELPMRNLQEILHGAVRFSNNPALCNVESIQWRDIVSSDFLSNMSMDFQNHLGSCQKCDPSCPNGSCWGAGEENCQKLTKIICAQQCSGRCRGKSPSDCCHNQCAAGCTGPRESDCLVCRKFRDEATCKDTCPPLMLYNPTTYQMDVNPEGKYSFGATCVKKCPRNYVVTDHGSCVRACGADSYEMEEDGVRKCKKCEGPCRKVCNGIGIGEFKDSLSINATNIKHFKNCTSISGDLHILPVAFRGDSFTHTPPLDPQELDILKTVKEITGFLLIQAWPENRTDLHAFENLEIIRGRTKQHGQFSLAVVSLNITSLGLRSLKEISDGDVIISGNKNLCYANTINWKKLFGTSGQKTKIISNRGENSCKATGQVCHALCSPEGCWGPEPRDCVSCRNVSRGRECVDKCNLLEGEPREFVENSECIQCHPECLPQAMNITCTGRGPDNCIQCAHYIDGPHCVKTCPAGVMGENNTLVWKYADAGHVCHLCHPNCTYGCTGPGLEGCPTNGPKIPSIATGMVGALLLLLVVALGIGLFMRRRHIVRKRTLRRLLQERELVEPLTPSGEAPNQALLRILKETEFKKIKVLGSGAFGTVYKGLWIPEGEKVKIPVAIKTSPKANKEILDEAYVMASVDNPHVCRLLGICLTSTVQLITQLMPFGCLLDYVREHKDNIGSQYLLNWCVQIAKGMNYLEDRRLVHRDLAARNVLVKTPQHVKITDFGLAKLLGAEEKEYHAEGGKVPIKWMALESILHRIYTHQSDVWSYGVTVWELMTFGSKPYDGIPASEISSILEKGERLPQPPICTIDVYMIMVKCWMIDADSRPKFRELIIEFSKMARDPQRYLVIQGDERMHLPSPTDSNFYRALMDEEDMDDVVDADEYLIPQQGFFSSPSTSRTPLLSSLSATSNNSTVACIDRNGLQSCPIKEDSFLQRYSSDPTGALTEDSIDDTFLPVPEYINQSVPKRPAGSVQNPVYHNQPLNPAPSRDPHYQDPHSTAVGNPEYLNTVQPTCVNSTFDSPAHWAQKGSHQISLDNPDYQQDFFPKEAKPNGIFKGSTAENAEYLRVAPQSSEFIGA
pIC50: −log10 of the molar value.
# pIC50 listing for each entry below

> print(dat)
                           smiles.structure  observed
1  COc1cc(N2CCOCC2)c(N)cc1Nc1ncc(Cl)c(Nc2ccccc2NS(C)(=O)=O)n1    > 9.00
2  COc1cc(N(C)CCN(C)C)c(N)cc1Nc1ncc(Cl)c(Nc2ccccc2NS(C)(=O)=O)n1    > 9.00
3   Cc1ccc(Nc2nc(Cl)ncc2Cl)c(NS(C)(=O)=O)c1    > 9.00

Would you kindly look at the next entry?
Ask | # query: pIC50 of entry CC(=O)N(C)c1c(Nc2nc(Cl)ncc2Cl)ccc(C)c1C
Reply | 8.70
